Where do the numbers come from? From ChEMBL document CHEMBL3400074.

Assay: Cytotoxicity against mouse RAW264.7 cells at 100 uM after 48 hrs by MTT assay
Type: cell-based
Details: read-out: INH
readout-type: cytotoxicity at 48 h, 100 µM (%)
Unit % implied. Number only.

compound | cytotoxicity at 48 h, 100 µM, %
NC(=O)c1cc(-c2ccccc2)sc1NC(=O)c1ccc([N+](=O)[O-])cc1 | 35.9
NC(=O)c1cc(-c2ccccc2)sc1NC(=S)Nc1ccc([N+](=O)[O-])cc1 | 40.3
Cc1ccc(NC(=S)Nc2sc(-c3ccccc3)cc2C(N)=O)cc1 | 34.8
NC(=O)c1cc(-c2ccccc2)sc1NC(=S)Nc1ccc(F)cc1 | 32.1
NC(=O)c1cc(-c2ccccc2)sc1NC(=O)Nc1ccc(Cl)cc1 | 38.2

Asked: Tell me measured cytotoxicity at 48 h, 100 µM for `NC(=O)c1cc(-c2ccccc2)sc1NC(=O)C1CCCCC1` please.
Given back: 39

Asked: Look up and state reported cytotoxicity at 48 h, 100 µM for `NC(=O)c1cc(-c2ccccc2)sc1NC(=O)C1CCCC1`
Given back: 39.7

Asked: Given `CCC(=O)Nc1sc(-c2ccccc2)cc1C(N)=O` , respond with its cytotoxicity at 48 h, 100 µM.
Given back: 39.4

Asked: Give cytotoxicity at 48 h, 100 µM for `CC(C)NC(=O)Nc1sc(-c2ccccc2)cc1C(N)=O`
Given back: 36.1

Asked: Report cytotoxicity at 48 h, 100 µM for `NC(=O)c1cc(-c2ccccc2)sc1NC(=S)NCc1ccccc1`
Given back: 36.1

Asked: Using known records, supply cytotoxicity at 48 h, 100 µM for `NC(=O)c1cc(-c2ccccc2)sc1NC(=O)Nc1ccccc1`
Given back: 37.3

Asked: Given the compound `NC(=O)c1cc(-c2ccccc2)sc1NC(=O)Nc1ccc(F)cc1` , write its reported cytotoxicity at 48 h, 100 µM.
Given back: 33.7

----------
Biological target: DNA gyrase subunit B (Mycobacterium smegmatis, UniProt P0C559)
Sequence (P0C559 whole entry, the tested form may be a part): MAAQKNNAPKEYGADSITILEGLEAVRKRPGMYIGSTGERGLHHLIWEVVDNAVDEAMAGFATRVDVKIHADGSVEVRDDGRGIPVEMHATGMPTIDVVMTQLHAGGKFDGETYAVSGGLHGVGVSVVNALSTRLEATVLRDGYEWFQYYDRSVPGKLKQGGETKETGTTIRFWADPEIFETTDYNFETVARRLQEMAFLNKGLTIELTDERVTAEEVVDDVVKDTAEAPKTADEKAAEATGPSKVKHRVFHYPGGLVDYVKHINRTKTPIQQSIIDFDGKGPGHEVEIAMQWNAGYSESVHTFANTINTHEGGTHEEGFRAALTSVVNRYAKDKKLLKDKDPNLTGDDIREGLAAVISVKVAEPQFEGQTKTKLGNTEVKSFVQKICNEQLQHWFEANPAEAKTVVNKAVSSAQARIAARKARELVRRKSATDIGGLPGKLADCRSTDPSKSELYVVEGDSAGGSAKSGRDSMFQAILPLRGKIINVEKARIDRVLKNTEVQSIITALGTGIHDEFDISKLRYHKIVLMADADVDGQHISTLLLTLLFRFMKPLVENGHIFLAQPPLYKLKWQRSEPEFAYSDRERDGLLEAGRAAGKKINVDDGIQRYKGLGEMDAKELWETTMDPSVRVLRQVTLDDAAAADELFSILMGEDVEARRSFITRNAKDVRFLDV
Test: Inhibition of Mycobacterium smegmatis DNA GyrB domain assessed as inhibition of inorganic phosphate release after 100 mins at room temperature by ATPase assay
readout-type: pIC50
Notebook: values listed as pIC50 are -log10 of the concentration (mol/L).

given-smiles | pIC50
NC(=O)c1cc(-c2ccccc2)sc1NC(=O)NCc1ccccc1 | 4.97
NC(=O)c1cc(-c2ccccc2)sc1NC(=S)Nc1ccc([N+](=O)[O-])cc1 | 4.49
NC(=O)c1cc(-c2ccccc2)sc1NC(=O)c1ccc([N+](=O)[O-])cc1 | 5.05
NC(=O)c1cc(-c2ccccc2)sc1NC(=O)c1ccc(Cl)cc1 | 5.17
NC(=O)c1cc(-c2ccccc2)sc1NC(=O)Nc1ccc([N+](=O)[O-])cc1 | 4.89
NC(=O)c1cc(-c2ccccc2)sc1NC(=S)Nc1ccc(Br)cc1 | 4.96
NC(=O)c1cc(-c2ccccc2)sc1NC(=O)C1CCCCC1 | 4.99
NC(=O)c1cc(-c2ccccc2)sc1NC(=O)Nc1ccc(F)cc1 | 4.94
NC(=O)c1cc(-c2ccccc2)sc1NC(=O)Nc1ccc(Br)cc1 | 4.91
CCCC(=O)Nc1sc(-c2ccccc2)cc1C(N)=O | 5.45

Asked: Answer with the recorded pIC50 of `CC(C)NC(=S)Nc1sc(-c2ccccc2)cc1C(N)=O` only.
Given back: 4.79
